Data credit: patent US20110318339A1

Entries annotated with measured ELISA absorbance at 450 nm
- testedOn: recombinant human DLL4 (Cat# 1506-D4/CF, R&D Systems) (human) (UniProt Q9NR61)
- measurementNotes: ELISA, DLL4 coated, Fab 25 nM
# value in A450; strip the unit string

binder="Fab VH5-51_IGHD5-18*01>3_IGHJ4*01 G104T & V3-4_IGLJ1*01 (Fab, V domains shown) VH: EVQLVQSGAEVKKPGESLKISCKGSGYSFTSYWIGWVRQMPGKGLEWMGIIYPGDSDTRYSPSFQGQVTISADKSISTAYLQWSSLKASDTAMYYCARRGYSYTYDYFDYWGQGTLVTVSS VL: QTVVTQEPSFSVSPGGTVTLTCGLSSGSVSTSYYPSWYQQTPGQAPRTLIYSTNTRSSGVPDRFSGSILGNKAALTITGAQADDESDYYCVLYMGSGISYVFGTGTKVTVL" observationtype="ELISA absorbance at 450 nm" recordedmeasurement=0.18

Data request: Using the record for Fab VH5-51_IGHD5-18*01>3_IGHJ4*01 G100K/G104T G24T/S28R/G35V Y105N & V3-4_IGLJ1*01 (Fab, V domains shown) VH: EVQLVQSGAEVKKPGESLKISCKTSGYRFTSYWIVWVRQMPGKGLEWMGIIYPGDSDTRYSPSFQGQVTISADKSISTAYLQWSSLKASDTAMYYCARRKYSYTNDYFDYWGQGTLVTVSS VL: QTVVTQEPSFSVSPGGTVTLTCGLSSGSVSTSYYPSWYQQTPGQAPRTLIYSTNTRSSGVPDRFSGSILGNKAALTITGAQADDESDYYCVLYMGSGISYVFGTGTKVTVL , report its ELISA absorbance at 450 nm.
Data returned: 0.19
